These data points were gathered from paper PMC2820545.

Molecular target: LVDr + M250V HBV polymerase (Hepatitis B virus genotype D subtype ayw, UniProt P03156, L515M/M539V/M585V)
Construct: intracellular HBV nucleocapsids were isolated from HBV transfected HepG2 cells and used in endogenous polymerase assays; expressed in transfected cells; host or cells: HepG2 cells transfected with a mutated HBV expression plasmid
Sequence (P03156 whole entry L515M/M539V/M585V): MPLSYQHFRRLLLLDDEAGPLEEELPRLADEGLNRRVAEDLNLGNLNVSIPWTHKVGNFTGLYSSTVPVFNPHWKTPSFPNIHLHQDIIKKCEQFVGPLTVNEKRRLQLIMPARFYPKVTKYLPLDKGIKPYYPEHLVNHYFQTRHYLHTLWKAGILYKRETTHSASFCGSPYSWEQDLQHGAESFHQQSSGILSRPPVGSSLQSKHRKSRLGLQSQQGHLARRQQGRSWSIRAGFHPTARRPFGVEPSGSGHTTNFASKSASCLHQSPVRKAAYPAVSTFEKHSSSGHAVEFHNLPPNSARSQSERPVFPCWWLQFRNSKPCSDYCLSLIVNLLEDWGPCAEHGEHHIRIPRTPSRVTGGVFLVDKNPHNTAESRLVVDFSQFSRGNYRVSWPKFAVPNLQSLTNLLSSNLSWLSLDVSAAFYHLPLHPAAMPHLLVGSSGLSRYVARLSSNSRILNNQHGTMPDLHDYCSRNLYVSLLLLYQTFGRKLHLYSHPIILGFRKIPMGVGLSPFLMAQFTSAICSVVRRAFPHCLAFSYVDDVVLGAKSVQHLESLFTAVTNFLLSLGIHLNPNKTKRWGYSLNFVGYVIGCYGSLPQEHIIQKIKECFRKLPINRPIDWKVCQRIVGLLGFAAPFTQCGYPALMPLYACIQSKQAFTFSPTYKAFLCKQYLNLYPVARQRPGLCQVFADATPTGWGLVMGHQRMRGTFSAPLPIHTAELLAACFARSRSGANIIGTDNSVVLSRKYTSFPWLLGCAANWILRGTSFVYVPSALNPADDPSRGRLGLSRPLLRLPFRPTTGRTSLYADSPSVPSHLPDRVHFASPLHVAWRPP
Experiment: In vitro HBV polymerase assay (endogenous polymerase assay with nucleocapsids)
Assay type: biochemical
Conditions: In vitro polymerase; LVDr + M250V; read-out: ddGTP IC50, Average ± SD (Range)
endpoint-label: pIC50
Recall that pIC50 is obtained by taking minus log10 of the concentration measured in molar.

Entry Nc1nc2c(ncn2[C@H]2CC[C@@H](COP(=O)(O)OP(=O)(O)OP(=O)(O)O)O2)c(=O)[nH]1 [ddGTP, 2′,3′-dideoxyguanosine-5′-triphosphate] ; pIC50 = 6.81

====

Target: LVDr + M250V HBV polymerase (Hepatitis B virus genotype D subtype ayw, UniProt P03156, L515M/M539V/M585V)
Construct: intracellular HBV nucleocapsids were isolated from HBV transfected HepG2 cells and used in endogenous polymerase assays; expressed in transfected cells; host or cells: HepG2 cells transfected with a mutated HBV expression plasmid
Assay: In vitro HBV polymerase assay (endogenous polymerase assay with nucleocapsids)
Assay type: biochemical
Settings: In vitro polymerase; LVDr + M250V; read-out: ETV-TP IC50, Average ± SD (Range)
endpoint-label: IC50 (nM)
I only need the number, in nM, no unit after it.

Entry C=C1[C@H](COP(=O)(O)OP(=O)(O)OP(=O)(O)O)[C@@H](O)C[C@@H]1n1cnc2c(=O)[nH]c(N)nc21 [ETV-TP, ETV-triphosphate] ; IC50 = 229

====

Target: LVDr L180M + M204V HBV polymerase (Hepatitis B virus genotype D subtype ayw, UniProt P03156, L515M/M539V)
Construct: intracellular HBV nucleocapsids were isolated from HBV transfected HepG2 cells and used in endogenous polymerase assays; expressed in transfected cells; host or cells: HepG2 cells transfected with a mutated HBV expression plasmid
Sequence (P03156 whole entry L515M/M539V): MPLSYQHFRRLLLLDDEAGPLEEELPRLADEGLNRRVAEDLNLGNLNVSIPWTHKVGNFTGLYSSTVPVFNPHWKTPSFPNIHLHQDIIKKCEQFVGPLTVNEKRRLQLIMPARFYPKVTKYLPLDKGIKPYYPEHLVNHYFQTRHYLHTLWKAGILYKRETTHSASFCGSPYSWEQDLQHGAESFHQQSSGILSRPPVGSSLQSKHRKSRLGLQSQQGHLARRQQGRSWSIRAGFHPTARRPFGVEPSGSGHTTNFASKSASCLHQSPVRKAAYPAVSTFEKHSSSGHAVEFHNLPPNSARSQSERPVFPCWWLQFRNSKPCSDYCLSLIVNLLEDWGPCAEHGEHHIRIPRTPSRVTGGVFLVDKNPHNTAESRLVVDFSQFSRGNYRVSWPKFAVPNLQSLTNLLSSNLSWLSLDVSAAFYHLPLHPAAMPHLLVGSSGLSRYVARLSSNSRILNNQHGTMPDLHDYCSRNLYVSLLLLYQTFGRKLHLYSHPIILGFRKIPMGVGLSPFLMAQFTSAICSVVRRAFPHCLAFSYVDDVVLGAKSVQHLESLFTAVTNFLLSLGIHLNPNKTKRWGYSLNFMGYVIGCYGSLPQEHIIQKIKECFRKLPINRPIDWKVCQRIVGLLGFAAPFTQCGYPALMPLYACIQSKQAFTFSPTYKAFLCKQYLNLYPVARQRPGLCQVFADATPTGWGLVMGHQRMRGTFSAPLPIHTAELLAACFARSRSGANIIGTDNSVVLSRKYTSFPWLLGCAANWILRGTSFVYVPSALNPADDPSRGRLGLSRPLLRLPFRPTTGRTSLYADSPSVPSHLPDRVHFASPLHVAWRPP
Assay: In vitro HBV polymerase assay (endogenous polymerase assay with nucleocapsids)
Format: biochemical
Conditions: In vitro polymerase; LVDr L180M + M204V; read-out: ETV-TP IC50, Average ± SD (Range)
endpoint-label: pIC50
Recall that pIC50 is obtained by taking minus log10 of the concentration measured in molar.

Entry C=C1[C@H](COP(=O)(O)OP(=O)(O)OP(=O)(O)O)[C@@H](O)C[C@@H]1n1cnc2c(=O)[nH]c(N)nc21 [ETV-TP, ETV-triphosphate] ; pIC50 = 7.57

====

Target: Wildtype HBV polymerase (Hepatitis B virus genotype D subtype ayw)
Construct: intracellular HBV nucleocapsids were isolated from HBV transfected HepG2 cells and used in endogenous polymerase assays; expressed in transfected cells; host or cells: HepG2 cells transfected with pCMV-HBV
Test: In vitro HBV polymerase assay (endogenous polymerase assay with nucleocapsids)
Format: biochemical
endpoint-label: pIC50
Recall that pIC50 is obtained by taking minus log10 of the concentration measured in molar.

Entry Nc1nc2c(ncn2[C@H]2CC[C@@H](COP(=O)(O)OP(=O)(O)OP(=O)(O)O)O2)c(=O)[nH]1 [ddGTP, 2′,3′-dideoxyguanosine-5′-triphosphate] ; pIC50 = 7.06

====

Tested on: LVDr L180M + M204V HBV
Experiment: HBV cell culture susceptibility (HBV-transfected HepG2 cells)
Type: cell-based
Details: Hepatitis B virus, Cell culture, LVDr L180M + M204V, single isolate, read-out: ETV EC50, Average ± SD (Range)
endpoint-label: pEC50
Recall that pEC50 is obtained by taking minus log10 of the concentration measured in molar.

Entry C=C1[C@H](CO)[C@@H](O)C[C@@H]1n1cnc2c(=O)[nH]c(N)nc21 ; pEC50 = 7.52

====

Biological target: LVDr + T184G + S202I HBV polymerase (Hepatitis B virus genotype D subtype ayw, UniProt P03156, L515M/M539V/S537I/T519G)
Construct: intracellular HBV nucleocapsids were isolated from HBV transfected HepG2 cells and used in endogenous polymerase assays
Sequence (P03156 whole entry L515M/T519G/S537I/M539V): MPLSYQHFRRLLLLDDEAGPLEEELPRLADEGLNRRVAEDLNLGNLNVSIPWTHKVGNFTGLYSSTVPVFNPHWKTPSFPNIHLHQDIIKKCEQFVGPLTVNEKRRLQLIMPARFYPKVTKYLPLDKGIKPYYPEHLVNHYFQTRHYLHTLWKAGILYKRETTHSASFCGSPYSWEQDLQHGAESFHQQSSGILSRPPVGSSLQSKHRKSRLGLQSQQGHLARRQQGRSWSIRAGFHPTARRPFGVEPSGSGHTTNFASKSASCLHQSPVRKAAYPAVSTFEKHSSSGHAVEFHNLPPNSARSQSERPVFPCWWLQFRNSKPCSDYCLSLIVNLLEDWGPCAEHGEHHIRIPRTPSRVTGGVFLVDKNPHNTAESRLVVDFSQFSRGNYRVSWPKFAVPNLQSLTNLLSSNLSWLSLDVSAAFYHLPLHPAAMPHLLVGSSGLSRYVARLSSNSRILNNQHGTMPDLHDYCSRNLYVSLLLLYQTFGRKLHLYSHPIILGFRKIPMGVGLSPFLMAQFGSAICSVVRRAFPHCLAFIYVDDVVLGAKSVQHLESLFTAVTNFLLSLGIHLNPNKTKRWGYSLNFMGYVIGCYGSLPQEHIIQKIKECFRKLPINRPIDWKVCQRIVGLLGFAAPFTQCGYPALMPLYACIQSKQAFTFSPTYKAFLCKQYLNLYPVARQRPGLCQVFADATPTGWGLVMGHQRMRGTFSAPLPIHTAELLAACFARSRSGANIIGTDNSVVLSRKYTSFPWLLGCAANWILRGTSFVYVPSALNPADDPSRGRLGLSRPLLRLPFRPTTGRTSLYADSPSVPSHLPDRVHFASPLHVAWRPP
Assay: In vitro HBV polymerase assay (endogenous polymerase assay with nucleocapsids)
Settings: calculated with Cheng-Prusoff equation; LVDr + T184G + S202I polymerase; read-out: Ki (ETV-TP)
endpoint-label: Ki (µM)
I only need the number, in µM, no unit after it.

Entry C=C1[C@H](COP(=O)(O)OP(=O)(O)OP(=O)(O)O)[C@@H](O)C[C@@H]1n1cnc2c(=O)[nH]c(N)nc21 [ETV-TP, ETV-triphosphate] ; Ki = 0.155

====

Biological target: LVDr + S202G HBV polymerase (Hepatitis B virus genotype D subtype ayw, UniProt P03156, L515M/M539V/S537G)
Construct: intracellular HBV nucleocapsids were isolated from HBV transfected HepG2 cells and used in endogenous polymerase assays; expressed in transfected cells; host or cells: HepG2 cells transfected with a mutated HBV expression plasmid
Sequence (P03156 whole entry L515M/S537G/M539V): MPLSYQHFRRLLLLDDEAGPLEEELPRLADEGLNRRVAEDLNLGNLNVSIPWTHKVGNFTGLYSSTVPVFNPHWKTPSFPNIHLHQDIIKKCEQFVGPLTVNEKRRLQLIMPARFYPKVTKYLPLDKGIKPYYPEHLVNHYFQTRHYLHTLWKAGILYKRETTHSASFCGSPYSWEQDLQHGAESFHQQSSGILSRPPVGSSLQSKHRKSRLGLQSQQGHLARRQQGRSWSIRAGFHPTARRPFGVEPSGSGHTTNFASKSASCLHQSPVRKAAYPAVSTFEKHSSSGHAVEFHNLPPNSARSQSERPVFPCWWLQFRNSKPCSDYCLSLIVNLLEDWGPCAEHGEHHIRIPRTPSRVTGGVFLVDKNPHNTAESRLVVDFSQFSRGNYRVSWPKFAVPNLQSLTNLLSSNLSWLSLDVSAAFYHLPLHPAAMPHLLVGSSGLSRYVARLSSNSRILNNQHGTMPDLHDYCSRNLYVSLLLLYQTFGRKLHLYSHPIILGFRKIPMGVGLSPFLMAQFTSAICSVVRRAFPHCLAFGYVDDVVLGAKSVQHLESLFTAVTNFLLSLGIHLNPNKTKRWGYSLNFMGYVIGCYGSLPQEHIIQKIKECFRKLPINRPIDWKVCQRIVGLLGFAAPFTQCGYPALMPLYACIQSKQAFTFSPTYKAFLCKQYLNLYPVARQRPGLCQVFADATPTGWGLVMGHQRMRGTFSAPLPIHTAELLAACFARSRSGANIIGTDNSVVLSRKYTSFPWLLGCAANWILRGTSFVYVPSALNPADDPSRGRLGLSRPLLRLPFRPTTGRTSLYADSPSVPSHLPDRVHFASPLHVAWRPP
Test: In vitro HBV polymerase assay (endogenous polymerase assay with nucleocapsids)
Assay type: biochemical
Details: calculated with Cheng-Prusoff equation; LVDr + S202G polymerase; read-out: Ki (ETV-TP)
endpoint-label: Ki (nM)
I only need the number, in nM, no unit after it.

Entry C=C1[C@H](COP(=O)(O)OP(=O)(O)OP(=O)(O)O)[C@@H](O)C[C@@H]1n1cnc2c(=O)[nH]c(N)nc21 [ETV-TP, ETV-triphosphate] ; Ki = 147

====

Biological target: LVDr + T184G + S202I HBV polymerase (Hepatitis B virus genotype D subtype ayw, UniProt P03156, L515M/M539V/S537I/T519G)
Construct: intracellular HBV nucleocapsids were isolated from HBV transfected HepG2 cells and used in endogenous polymerase assays; expressed in transfected cells; host or cells: HepG2 cells transfected with an HBV expression plasmid
Assay: In vitro HBV polymerase assay (endogenous polymerase assay with nucleocapsids)
Type: biochemical
Conditions: In vitro polymerase; LVDr + T184G + S202I; read-out: ddGTP IC50, Average ± SD (Range)
endpoint-label: IC50 (nM)
I only need the number, in nM, no unit after it.

Entry Nc1nc2c(ncn2[C@H]2CC[C@@H](COP(=O)(O)OP(=O)(O)OP(=O)(O)O)O2)c(=O)[nH]1 [ddGTP, 2′,3′-dideoxyguanosine-5′-triphosphate] ; IC50 = 188

====

Target: LVDr L180M + M204V HBV polymerase (Hepatitis B virus genotype D subtype ayw, UniProt P03156, L515M/M539V)
Construct: intracellular HBV nucleocapsids were isolated from HBV transfected HepG2 cells and used in endogenous polymerase assays; expressed in transfected cells; host or cells: HepG2 cells transfected with a mutated HBV expression plasmid
Assay: In vitro HBV polymerase assay (endogenous polymerase assay with nucleocapsids)
Type: biochemical
Conditions: In vitro polymerase; LVDr L180M + M204V; read-out: ddGTP IC50, Average ± SD (Range)
endpoint-label: IC50 (nM)
I only need the number, in nM, no unit after it.

Entry Nc1nc2c(ncn2[C@H]2CC[C@@H](COP(=O)(O)OP(=O)(O)OP(=O)(O)O)O2)c(=O)[nH]1 [ddGTP, 2′,3′-dideoxyguanosine-5′-triphosphate] ; IC50 = 138

====

Biological target: LVDr + T184G + S202I HBV polymerase (Hepatitis B virus genotype D subtype ayw, UniProt P03156, L515M/M539V/S537I/T519G)
Construct: intracellular HBV nucleocapsids were isolated from HBV transfected HepG2 cells and used in endogenous polymerase assays; expressed in transfected cells; host or cells: HepG2 cells transfected with an HBV expression plasmid
Experiment: In vitro HBV polymerase assay (endogenous polymerase assay with nucleocapsids)
Assay type: biochemical
Conditions: In vitro polymerase; LVDr + T184G + S202I; read-out: ETV-TP IC50, Average ± SD (Range)
endpoint-label: IC50

Entry C=C1[C@H](COP(=O)(O)OP(=O)(O)OP(=O)(O)O)[C@@H](O)C[C@@H]1n1cnc2c(=O)[nH]c(N)nc21 [ETV-TP, ETV-triphosphate] ; IC50 = 636 nM

====

Biological target: LVDr + T184L HBV polymerase (Hepatitis B virus genotype D subtype ayw, UniProt P03156, L515M/M539V/T519L)
Construct: intracellular HBV nucleocapsids were isolated from HBV transfected HepG2 cells and used in endogenous polymerase assays
Sequence (P03156 whole entry L515M/T519L/M539V): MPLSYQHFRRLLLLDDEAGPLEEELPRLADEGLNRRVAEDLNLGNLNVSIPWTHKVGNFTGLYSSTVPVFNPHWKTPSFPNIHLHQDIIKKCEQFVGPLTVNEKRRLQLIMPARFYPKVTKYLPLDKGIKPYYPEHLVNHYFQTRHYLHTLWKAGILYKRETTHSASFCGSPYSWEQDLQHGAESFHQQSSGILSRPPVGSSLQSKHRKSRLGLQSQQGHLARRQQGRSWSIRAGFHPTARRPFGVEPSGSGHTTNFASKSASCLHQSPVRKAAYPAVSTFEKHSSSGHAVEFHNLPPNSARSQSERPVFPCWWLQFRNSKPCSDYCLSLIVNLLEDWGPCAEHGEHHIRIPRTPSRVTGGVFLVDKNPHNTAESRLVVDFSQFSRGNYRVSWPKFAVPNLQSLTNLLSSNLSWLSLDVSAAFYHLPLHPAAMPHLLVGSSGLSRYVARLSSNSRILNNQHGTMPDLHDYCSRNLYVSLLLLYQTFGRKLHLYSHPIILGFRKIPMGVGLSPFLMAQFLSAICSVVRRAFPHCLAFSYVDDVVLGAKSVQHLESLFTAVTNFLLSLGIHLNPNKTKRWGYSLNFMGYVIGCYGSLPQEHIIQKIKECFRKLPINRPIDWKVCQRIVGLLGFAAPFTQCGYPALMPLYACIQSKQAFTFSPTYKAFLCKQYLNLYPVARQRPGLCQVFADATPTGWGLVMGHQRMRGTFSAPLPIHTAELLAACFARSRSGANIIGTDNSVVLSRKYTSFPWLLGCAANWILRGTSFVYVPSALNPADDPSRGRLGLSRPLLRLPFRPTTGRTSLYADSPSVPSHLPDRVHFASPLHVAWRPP
Assay: In vitro HBV polymerase assay (endogenous polymerase assay with nucleocapsids)
Settings: calculated with Cheng-Prusoff equation; LVDr + T184L polymerase; read-out: Ki (ETV-TP)
endpoint-label: Ki (nM)
I only need the number, in nM, no unit after it.

Entry C=C1[C@H](COP(=O)(O)OP(=O)(O)OP(=O)(O)O)[C@@H](O)C[C@@H]1n1cnc2c(=O)[nH]c(N)nc21 [ETV-TP, ETV-triphosphate] ; Ki = 224

====

Test system: LVDr + M250V HBV
Experiment: HBV cell culture susceptibility (HBV-transfected HepG2 cells)
Assay type: cell-based
Details: Hepatitis B virus, averaged from 2 isolates, read-out: ETV EC50, Average ± SD (Range)
endpoint-label: pEC50
Recall that pEC50 is obtained by taking minus log10 of the concentration measured in molar.

Entry C=C1[C@H](CO)[C@@H](O)C[C@@H]1n1cnc2c(=O)[nH]c(N)nc21 [ETV, Entecavir] ; pEC50 = 5.51
